Experiment: yeast display, Sf9 membrane polyspecificity reagent, FACS + sequencing; frameworks hold sequencing errors
recorded endpoint: polyreactivity (PSR sort gate)

sequence record: QVQLVESGVGLVQAGGSLRLSCAASGSIFYRYAMGWYRQAPGKEREFVARITSSGGSTNYADSVKGRFTISRDNAKNTVYLQMNSLKPEDTAVYYCAKRGWSSYGRYDSWGQGTQVTVSS
result: high polyreactivity
//
sequence record: QVQLVESGGGLVQAGGSLRLSCAASGRIFGYYAMGWYRQAPGKERELVASITNGASTNYADSVKGRFTISRDNAKNTVYLQMNSLKPEDTAVYYWNARRGSRRFGYWGQGTQVTVSS
result: high polyreactivity
//
sequence record: QVQHVESGGGLVQAGGSLRLSCAASRSIFYYYAMGWYRQPPGKERELVAAISSDGTNYADSVKGRFTITRDNAKNTVYLQMNSLNPEDTAVYYCAKDHCTTSYDEGDYWGQGTQVTVSS
result: low polyreactivity
//
sequence record: QVQLVESGGGLVQAGGSLRLSCAASGLTFYFYAMGWYIQAPGKERELVAAIDWGGGSTYYADSVKGRFTISRDYAKNTVYLQMNSLKPEDTAVYYCAARGYYYNYDVNYWGQGTQVTVSS
result: low polyreactivity
//
sequence record: QVQLVESGGGLVQAGGSLRLSCAASGSTFVRYAMGWYRQAPGKERELVAAISSGGSRTYYADSVKGRFTISRDNAKNTVYLQMNSLKPEDTAVYYCATVSTYYHYRRYDYWGQGTQVTVSS
result: high polyreactivity
//
sequence record: QVQLVESGGGLVQAGCSLRLSCAASGRIFSRNAMGWYRQAPGKERELVAVITKRGGSTYYADSVKGRFTISRDKAKNTVYLQMNSLKPEDTAVYYCNAVPRRGIAFNHWGQGTHVTVSS
result: high polyreactivity
//
sequence record: QVQLVESGGGLVQAGGSLRLSCAASGSTFFPNAMGWYRQAPGKERELVAAIRWRGGTYYADSVKGRFTISRDNAKNTVYLQMNSLKQEDTAVYYCATSVKPSYDYWGQGTQVTVSS
result: low polyreactivity
//
sequence record: QVQLVESGGGLVQAGGSLRLSCAASGSIFSTYVMVWYRQAPGKDRELVAAITVSVGSTYYADSVKGRFTISRDNAKNTVYLQMNSLKPEDTAVYYCAAYGGTGYPFDAYYHDYDYWGQGTQVTVSS
result: low polyreactivity
//
sequence record: QVQLVESGGGLVQAGGSLRLSCAASGSIFYRNAMGWYRQAPGKERELVAAITRSDGRTYYADSVKGRFTISRDNAKNTVYLLMNSLKPEDTAVYYCAADYSFGYRDFYYWGQGTQVTVSS
result: low polyreactivity
//
sequence record: QVQLVESGGGLVQAGGSLRLSCAASGSIFYQNAMGWYRHAPGKERELVAAITSDGSTYYADSVKGRFTISRDNAKKTVYLQMNSLKPEDTAVYYCAAEDYGHRYDYWGQGTQVTVSS
result: low polyreactivity
//
sequence record: QVQLVESGGGLDQAGGSLRLSCAASGRTFAYYAIGWYRQAPGKERELVATITSYVGRTYYADSVKGRFTISRDNAKKSVYLQMNSLKPDDTAVYYSNARDWGRTRGGGYPWLYRYDYWGQGTQVTVSS
result: low polyreactivity
//
sequence record: QVQLVESGGGLVQAGGSLRLSCAASGSIFYGYAMGWYRQAPGKERELVAAISWSGTSTYYADSVKGRFTISRDNAKNTVYLQMNSLKPEDTAVYYCAADQFQGNSGFEYWGQGTQVTVSS
result: low polyreactivity
//
sequence record: QVQLVESGGGLVQAGGSLRLICAASGRTFGVYAMGWYRQAPGKERELVADITSGGGTYYADSVKGRFTILRDNAKNTFYLQMNSLKPEDTAVYYFAARKWYYAYDYWGQGTQVTVSS
result: high polyreactivity
//
sequence record: QVQLVESGGGLVQAGGSLRLSCAASGFTSRRYVMGWYRQAPGKERELVAAISSRGTSTYYADSVKGRFTISRDNAKNTVYLKMNSLKPEDTAVYYCAAVIRGRTRWLKYDYWGQGTQGTVSS
result: high polyreactivity
//
sequence record: QVQLVESGGGLVQAGGSLRLSCAASGSIFPRYAMGWYRQAPGKERELVAAITGSGSSTYYADSVKGRFTISRDNAKNTVYLQMNSLKPEDTAVYYCAARKARPPFPHPFDYYWGQGTQVTVSS
result: low polyreactivity
//
sequence record: QVQLVESGGGLVQAGASLRLSCAASVSTFGVNAMGCYRQAPGKERELVAAISSSGSSTYADSVKGRFTISRDNAKNTVYLQMNSLKPEDTAVYYCNITTLLSVVYDYWGQGTQVNVSS
result: low polyreactivity
//
sequence record: QVQLQESGGGLVQAGGSLRLGCAASGNISDAGYMGWYRQAPGKEREFVAAIAAGSNTNYADSVKGRFTISRDNAKNTVYLQMNSLKPEDTAVFYCAVASYARVQYQYWGQGTQVTVNS
result: low polyreactivity
//
sequence record: QVQLVESGGGLVQAGGSLSLSCAASGRTFSGNAMGWYRQAPGKERELVAAINWRGGRTYYADSVKGRFTISRDNAKNTVYLQMNSLKPEDTAVYYCAAVYVFHRYIYSLYDYWGQGTQVTVSS
result: high polyreactivity
//
sequence record: QVQLVESGGGLVQAGGSLRLSSAASGRIFGYNAMGWYRQAPGKERELVAVITYRGTSTYYADSVKGRFTISRDNAKNTVYLQMNSLKPEDTAVYYCAAVNGGYWRYYYWGQGTQVTVSS
result: high polyreactivity
//
sequence record: LVQHVESGGGLVQAGGSLRLNCAASGRTFKPYAMGWYIQSPGKERELVAAISTRGGSTYYADSVKGRFTISRDNAKNSVFLQMNSLKPEDTALFYCAATQPGRDYDYWGQGTQVTVSS
result: low polyreactivity
//
sequence record: QVQLVESGGGLVQAGGILRLSCAASGFTFGLYAMGWYRQAPGTERELVAAIRNNGGSTYYADSVKGRFTISRDNAKNTVYLQMNSLKPDDTAVYYCAKKSFFTGRWWYDYWGQGTQVSVSS
result: high polyreactivity
